target: homodimer; experiment: Dimer dissociation constant from concentration dependence of NH chemical shifts (NMR); format: binding; conditions: 5% CD3OH/CDCl3, concentration range 0.6-42 mM; read-out: Dimer dissociation constant
metric: Kd (mM)
One number for each entry, in mM.

// Kd lookup, substance = Phe-Gly-Ser-D-Pro-Ala-Leu-Ach-Ile [hybrid 1] , result: 25

* * *

molecular target: homodimer; experiment: Dimer dissociation constant from concentration dependence of NH chemical shifts (NMR); type: binding; conditions: pure chloroform, extrapolated from Kd vs CD3OH concentration; read-out: Dissociation constant in pure chloroform, extrapolation of the line in FIG. 1
metric: Kd

// Kd lookup, substance = Ac-Phe-Ach-Leu-Ach-Val-OH [Ach-containing peptide analog terminating in carboxylic acid group] , result: ~130 nM
